Tested on: Staph. aureus C-5216

# compound, MIC (µg/mL)
data = [
    ("CO/N=C(\\C(=O)N[C@@H]1C(=O)N2C(C(=O)[O-])=C(C[n+]3ccn4c(Br)ccc4c3C)CS[C@H]12)c1nsc(N)n1 [Ex. 59]", 0.78),
    ("CO/N=C(\\C(=O)N[C@@H]1C(=O)N2C(C(=O)[O-])=C(C[n+]3ccn4cccc4c3C)CS[C@H]12)c1nsc(N)n1 [Ex. 57]", 0.39),
    ("CO/N=C(\\C(=O)N[C@@H]1C(=O)N2C(C(=O)[O-])=C(C[n+]3ccn4c(CO)ccc4c3C)CS[C@H]12)c1nc(N)sc1Cl [Ex. 58]", 0.78),
]

Reference for the values: patent US5593984A
